target: T1, EDIII-DV1 (Dengue virus serotype 1 (DV1), UniProt P17763 581-673); experiment: competition ELISA; affinity relative to 4E5A
T1 construct: also called EDIII of DV1; EDIII-DVI
T1 sequence (P17763 581-673 limits assumed): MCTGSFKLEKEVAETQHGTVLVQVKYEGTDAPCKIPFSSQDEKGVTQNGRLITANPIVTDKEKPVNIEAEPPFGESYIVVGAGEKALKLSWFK
Entries and their REL AFFINITY values follow.

Observe how each entry below is paired with its result.
[
  {
    "binder": "VH_A25_del (antibody, V domains shown, also called 4E5-del-25; copies: 2 + 2) VH: VKLLEQSGAELVKPGASVRLSCTSGFNIKDTYMSWVKQRPEQGLEWIGRIDPENGDTKYDPKFQGKATITADTSSNTAYLHLSSLTSGDTAVYYCSRGWEGFAYWGQGTLVTVSA VL: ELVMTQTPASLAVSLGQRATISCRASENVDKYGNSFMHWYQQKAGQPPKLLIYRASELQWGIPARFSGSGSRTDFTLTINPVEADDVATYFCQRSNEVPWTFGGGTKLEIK",
    "result": 0.29
  },
  {
    "binder": "VH_S26_del (antibody, V domains shown) VH: VKLLEQSGAELVKPGASVRLSCTAGFNIKDTYMSWVKQRPEQGLEWIGRIDPENGDTKYDPKFQGKATITADTSSNTAYLHLSSLTSGDTAVYYCSRGWEGFAYWGQGTLVTVSA VL: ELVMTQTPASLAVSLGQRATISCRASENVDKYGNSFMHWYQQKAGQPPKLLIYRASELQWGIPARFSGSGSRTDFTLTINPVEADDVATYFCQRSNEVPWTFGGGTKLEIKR",
    "result": "> 1.23"
  },
  {
    "binder": "VH_G27A (antibody, V domains shown) VH: VKLLEQSGAELVKPGASVRLSCTASAFNIKDTYMSWVKQRPEQGLEWIGRIDPENGDTKYDPKFQGKATITADTSSNTAYLHLSSLTSGDTAVYYCSRGWEGFAYWGQGTLVTVSA VL: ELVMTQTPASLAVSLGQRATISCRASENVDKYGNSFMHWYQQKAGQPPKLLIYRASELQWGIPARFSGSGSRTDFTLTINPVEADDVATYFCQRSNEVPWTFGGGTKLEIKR",
    "result": "> 1.23"
  },
  {
    "binder": "VH_G27P (antibody, V domains shown, also called 4E5-G27P; copies: 2 + 2) VH: VKLLEQSGAELVKPGASVRLSCTASPFNIKDTYMSWVKQRPEQGLEWIGRIDPENGDTKYDPKFQGKATITADTSSNTAYLHLSSLTSGDTAVYYCSRGWEGFAYWGQGTLVTVSA VL: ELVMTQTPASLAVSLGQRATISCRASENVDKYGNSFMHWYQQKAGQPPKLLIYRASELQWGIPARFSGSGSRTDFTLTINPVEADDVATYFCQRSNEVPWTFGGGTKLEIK",
    "result": 0.08
  },
  {
    "binder": "VH_Y106R (antibody, V domains shown, copies: 2 + 2) VH: VKLLEQSGAELVKPGASVRLSCTASGFNIKDTYMSWVKQRPEQGLEWIGRIDPENGDTKYDPKFQGKATITADTSSNTAYLHLSSLTSGDTAVYYCSRGWEGFARWGQGTLVTVSA VL: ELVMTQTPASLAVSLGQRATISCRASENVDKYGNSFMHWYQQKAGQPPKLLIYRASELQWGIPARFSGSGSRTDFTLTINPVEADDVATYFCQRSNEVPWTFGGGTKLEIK",
    "result": "> 1.23"
  }
]

Okay, next one:
Ask | Consider the binder shown here: VH_G27_del (antibody, V domains shown) VH: VKLLEQSGAELVKPGASVRLSCTASFNIKDTYMSWVKQRPEQGLEWIGRIDPENGDTKYDPKFQGKATITADTSSNTAYLHLSSLTSGDTAVYYCSRGWEGFAYWGQGTLVTVSA VL: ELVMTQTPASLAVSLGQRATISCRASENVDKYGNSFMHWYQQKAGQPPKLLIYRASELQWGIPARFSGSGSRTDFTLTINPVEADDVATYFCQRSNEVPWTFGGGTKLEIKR What is its recorded REL AFFINITY?
Reply | > 1.23
